target system: protein-protein interaction between SOS1 and KRAS G12D (Homo sapiens (Human), UniProt Q07889)
Sequence (Q07889 564-1049, stated change not applied): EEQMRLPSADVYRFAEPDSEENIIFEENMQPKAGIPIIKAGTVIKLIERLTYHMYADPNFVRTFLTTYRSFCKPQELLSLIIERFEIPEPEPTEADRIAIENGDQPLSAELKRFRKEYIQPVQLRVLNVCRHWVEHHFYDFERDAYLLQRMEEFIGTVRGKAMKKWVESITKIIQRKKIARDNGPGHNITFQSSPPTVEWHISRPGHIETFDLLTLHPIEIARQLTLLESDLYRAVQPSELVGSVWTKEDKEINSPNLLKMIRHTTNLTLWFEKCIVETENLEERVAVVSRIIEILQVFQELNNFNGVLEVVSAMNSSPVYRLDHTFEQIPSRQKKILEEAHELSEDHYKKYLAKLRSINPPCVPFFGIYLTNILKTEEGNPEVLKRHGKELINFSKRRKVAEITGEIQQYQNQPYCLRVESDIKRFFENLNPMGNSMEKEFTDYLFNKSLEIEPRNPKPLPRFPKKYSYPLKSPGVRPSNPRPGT
experiment summary: KRAS::SOS1 AlphaScreen Binding Assay
run parameters: Table 20; KRAS::SOS1 AlphaScreen (SOS1 / KRAS G12D)
pIC50: −log10 of the molar value.
endpoint label: pIC50

Consider the reported pIC50 for these molecules:
- Cc1nc(N[C@H](C)c2cccc3c2OCC3(F)F)c2cn(C3(C)CC3)c(=O)cc2n1: 8.40
- Cc1nc(N[C@H](C)c2cccc(C(F)F)c2F)c2cn(C3CCOCC3)c(=O)cc2n1: 8.30
- Cc1nc(N[C@H](C)c2cccc(C(C)(F)F)c2F)c2cn(C3(CF)CC3)c(=O)c(F)c2n1: 8.40
- Cc1nc(N[C@H](C)c2cccc(C(F)(F)F)c2C)c2cn(C3(C)CCC3)c(=O)cc2n1: 8.05
- Cc1nc(N[C@H](C)c2cccc(C(F)F)c2F)c2cn(C3(C)CC3)c(=O)cc2n1: 8.30

1: Cc1nc(N[C@H](C)c2cccc(C(F)(F)F)c2)c2cn(C3CCC(F)(F)CC3)c(=O)cc2n1
2: Cc1nc(N[C@H](C)c2cccc(C(C)(F)F)c2F)c2cn(C3(C(F)(F)F)CC3)c(=O)cc2n1
Lab note: record which item had the higher pIC50, 1 or 2 . # reply format: chosen label
2
(2: 7.89, 1: 7.41)

====

target system: protein-protein interaction between SOS1 and KRAS G12D (Homo sapiens (Human))
experiment summary: KRAS::SOS1 AlphaScreen Binding Assay
run parameters: Table 20; KRAS::SOS1 AlphaScreen (SOS1 / KRAS G12D)
Experimental: KRAS::SOS1 AlphaScreen Binding Assay Low IC50 values are indicative of high potency of the SOS1 inhibitor compound in this assay setting: […] Compounds are diluted to a final start concentration of 100 μM and are tested in duplicate. Assay-ready plates (ARPs) are generated using an Access Labcyte Workstation with a Labcyte Echo 550 or 555 accoustic dispenser. […] IC50 values are calculated and analyzed using a 4 parametric logistic model.
endpoint label: IC50 (nM)

- C[C@@H](Nc1ncnc2cc(=O)n(C3CC34CC4)cc12)c1cccc(C(F)F)c1F (stereo partly shown) [I-66]: 15
- Cc1nc(N[C@H](C)c2cccc(C(F)(F)F)c2F)c2cn(C3(c4ccccc4)CCOCC3)c(=O)cc2n1 [I-36]: 40
- Cc1nc(N[C@H](C)c2cccc(C(F)F)c2F)c2cn(C34CC(F)(C3)C4)c(=O)cc2n1 [I-16]: 12

a: Cc1nc(N[C@H](C)c2cccc(C(F)(F)[C@@H]3CCCO3)c2F)c2cn(C3(C)CC3)c(=O)c(F)c2n1 [I-94]
b: Cc1nc(N[C@H](C)c2cccc(C(F)(F)F)c2)c2cn(C3CCOCC3)c(=O)cc2n1 [I-31]
Between a and b , which one has the lower reported IC50 value? # reply format: chosen label
a
(a: 5 nM, b: 11 nM)

A: C[C@@H](Nc1ncnc2cc(=O)n(C3(CF)CC3)cc12)c1cccc(C(F)F)c1F [I-63]
B: Cc1nc(N[C@H](C)c2cccc(C(F)(F)F)c2F)c2cn([C@H]3[C@@H]4COC[C@@H]43)c(=O)cc2n1 [I-32]
Lab note: record which item had the higher IC50, A or B . # reply format: chosen label
B
(B: 12 nM, A: 7 nM)

====

target system: protein-protein interaction between SOS1 and KRAS G12D (Homo sapiens (Human), UniProt Q07889)
experiment summary: KRAS::SOS1 AlphaScreen Binding Assay
run parameters: KRAS G12D::SOS1 AlphaScreen; measured without EDTA unless marked with an asterisk
pIC50: −log10 of the molar value.
endpoint label: pIC50

- Cc1nc(N[C@H](C)c2cccc(C(F)F)c2F)c2cn(C34CCC(F)(CC3)CC4)c(=O)cc2n1: 8.30
- Cc1c(=O)n(-c2cnn(C)c2)cc2c(N[C@H](C)c3cccc(C(F)F)c3F)ncnc12: 7.85

a: Cc1nc(N[C@H](C)c2cccc(C(F)F)c2C)c2cn(C34CCC(C(=O)N(C)C)(CC3)CC4)c(=O)cc2n1
b: Cc1nc(N[C@H](C)c2cccc(C(F)(F)F)c2)c2cn(C3(C)CCOC3)c(=O)cc2n1 (stereo partly shown)
Lab note: record which item had the higher pIC50, a or b . # reply format: chosen label
a
(a: 8.70, b: 8.05)

====

experiment summary: Metabolic (microsomal) stability assay, rat liver microsomes (RLM)
Assay type: in vitro ADME
run parameters: 1 μM test compound, 37° C.
endpoint label: RLM [% QH]

Consider the reported RLM [% QH] for these compounds:
* Cc1nc(N[C@H](C)c2cccc(C(F)(F)C(C)(C)O)c2F)c2cn(C34CC(C3)C4)c(=O)c(F)c2n1 | <23 % QH
* Cc1nc(N[C@H](C)c2cccc(C(F)F)c2F)c2cn([C@]3(C(F)(F)F)CCOC3)c(=O)c(F)c2n1 | <23 % QH
* Cc1nc(N[C@H](C)c2cccc(C(F)(F)C(C)(C)O)c2F)c2cn(C3(C)CC3)c(=O)c(F)c2n1 | <23 % QH
* Cc1nc(N[C@H](C)c2cccc(C(F)F)c2F)c2cn([C@H](C)C(F)(F)F)c(=O)cc2n1 | 40 % QH
* Cc1nc(N[C@H](C)c2cccc(C(C)(F)F)c2F)c2cn(C3(C(F)F)CC3)c(=O)cc2n1 | <23 % QH
* Cc1nc(N[C@H](C)c2cccc(C(F)F)c2F)c2cn(C3(C(F)(F)F)CC3)c(=O)cc2n1 | <23 % QH
* C[C@@H](Nc1ncnc2cc(=O)n([C@H]3C[C@H](F)C3)cc12)c1cccc(C(F)F)c1F | 40 % QH

Attention now turns to another entry.
Measured RLM [% QH], Cc1nc(N[C@H](C)c2cccc(C(F)(F)F)c2C)c2cn([C@H]3C[C@](O)(C(F)(F)F)C3)c(=O)cc2n1 : 29 % QH

====

target system: CYP3A4 (Homo sapiens (Human), UniProt P08684)
Sequence (P08684 whole entry): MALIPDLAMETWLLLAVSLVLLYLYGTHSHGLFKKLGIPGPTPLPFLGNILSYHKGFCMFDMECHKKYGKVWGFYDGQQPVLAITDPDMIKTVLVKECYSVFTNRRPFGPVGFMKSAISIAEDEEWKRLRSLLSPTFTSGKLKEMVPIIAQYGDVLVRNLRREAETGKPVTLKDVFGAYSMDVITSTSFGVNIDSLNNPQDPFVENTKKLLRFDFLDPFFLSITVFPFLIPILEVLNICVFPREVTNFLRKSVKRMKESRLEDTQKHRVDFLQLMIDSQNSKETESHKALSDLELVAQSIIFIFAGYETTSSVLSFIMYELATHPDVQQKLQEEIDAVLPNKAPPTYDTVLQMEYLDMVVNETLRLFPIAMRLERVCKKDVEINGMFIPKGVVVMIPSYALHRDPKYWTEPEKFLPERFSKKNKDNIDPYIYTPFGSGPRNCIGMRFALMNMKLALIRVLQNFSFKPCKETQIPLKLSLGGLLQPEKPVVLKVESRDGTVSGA
experiment summary: Time dependent inhibition of CYP3A4 assay (TDI 3A4)
Assay type: in vitro ADME
run parameters: hydroxy-midazolam formation after 30 min relative to 0 min preincubation; 25 uM compound; human liver microsomes; midazolam substrate
endpoint label: TDI 3A4 [%] (%)

* Cc1c(=O)n([C@@H]2C[C@H]2C(F)F)cc2c(N[C@H](C)c3cccc(C(F)F)c3F)ncnc12 | 87
* Cc1nc(N[C@H](C)c2cccc(C(F)(F)F)c2)c2cn(C3(C)CC3)c(=O)cc2n1 | 90
* Cc1nc(N[C@H](C)c2cccc(C(F)F)c2C)c2cn(C3CCC3)c(=O)cc2n1 | 87
* Cc1nc(N[C@H](C)c2cccc(C(F)(F)C(C)(C)O)c2F)c2cn(C3(C(F)F)CC3)c(=O)c(F)c2n1 | 83

====

experiment summary: Metabolic (microsomal) stability assay, rat liver microsomes (RLM)
Assay type: in vitro ADME
run parameters: 1 μM test compound, 37° C.
endpoint label: RLM [% QH]

Consider the reported RLM [% QH] for these molecules:
* Cc1c(=O)n(C23CC(F)(C2)C3)cc2c(N[C@H](C)c3cccc(C(F)F)c3F)ncnc12 | 37 % QH
* Cc1c(=O)n(C23CC(C2)C3)cc2c(N[C@H](C)c3cccc(C(F)F)c3F)ncnc12 | 44 % QH
* Cc1nc(N[C@H](C)c2cccc(C(C)(F)F)c2)c2cn(C3(C)CC3)c(=O)cc2n1 | <23 % QH
* Cc1c(=O)n(-c2cnn(C)c2)cc2c(N[C@H](C)c3cccc(C(F)F)c3F)ncnc12 | <23 % QH
* Cc1c(=O)n([C@H]2C[C@@H]2C(F)F)cc2c(N[C@H](C)c3cccc(C(F)F)c3F)ncnc12 | <23 % QH

Measured RLM [% QH], Cc1nc(N[C@H](C)c2cccc(C(F)F)c2F)c2cn(C3(C)CC(F)(F)C3)c(=O)cc2n1 : 56 % QH

Measured RLM [% QH], C[C@@H](Nc1ncnc2c(F)c(=O)n(C3(C(F)F)CC3)cc12)c1cccc(C(F)F)c1F : <23 % QH

Measured RLM [% QH], Cc1nc(N[C@H](C)c2cccc(C(F)F)c2F)c2cn(C3(C(F)F)CC3)c(=O)cc2n1 : <23 % QH

Measured RLM [% QH], Cc1c(=O)n(C2(C)CC2)cc2c(N[C@H](C)c3cccc(C(F)F)c3F)ncnc12 : <23 % QH

====

experiment summary: Metabolic (microsomal) stability assay, mouse liver microsomes (MLM)
Assay type: in vitro ADME
run parameters: 1 μM test compound, 37° C.
endpoint label: MLM [% QH] (% QH)

Consider the reported MLM [% QH] for these compounds:
* Cc1c(=O)n(C2(C)CC2)cc2c(N[C@H](C)c3cccc(C(F)F)c3F)ncnc12 | 44
* Cc1nc(N[C@H](C)c2cccc3c2OCC3(F)F)c2cn(C3(C)CC3)c(=O)cc2n1 | 59
* Cc1c(=O)n([C@@H]2C[C@H]2C(F)F)cc2c(N[C@H](C)c3cccc(C(F)F)c3F)ncnc12 | 48

1: Cc1c(=O)n(C23CC(C2)C3)cc2c(N[C@H](C)c3cccc(C(F)F)c3F)ncnc12
2: Cc1nc(N[C@H](C)c2cccc(C(C)(F)F)c2F)c2cn(C3(C)CC3)c(=O)c(F)c2n1
Between 1 and 2 , which one has the lower reported MLM [% QH] value? # reply format: chosen label
2
(2: 33 % QH, 1: 64 % QH)
